Provenance of the data: patent US20240408169A1

- Tested on: OVCAR3 cells
- experiment.notes: MTT proliferation assay, OVCAR3;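 note: compound given as an 8- or 10-point series, one day after plating, with exposure covering roughly 3-4 cell doublings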
- Assay type: cell-based
- condition.details: 5 days compound exposure, 1:3 serial dilution starting at 10 μM
*1 amine or outer side, *2 acyl side, *3 side chain or, on linkers, in order; H or OH if unused. Where a SMILES comes first, the peptide text is derived from it. Bridges are numbered along the chain shown (N, C = ends). [ ]: non-standard residue; d: D form. The star is where a group is joined. X205 = CC(C)C(=O)N1[C@@H]2COC[C@H]1C=C(c1ccc(F)cc1C[C@@H](C(=O)[*:2])N(C)[*:1])C2; NMePhe(2-(4-MorPh),5-Cl) = CN[C@@H](Cc1cc(Cl)ccc1-c1ccc(N2CCOCC2)cc1)C(=O)O; X127 = CN([C@@H](Cc1cc(F)ccc1-c1cnn(S(=O)(=O)C2CC2)c1)C(=O)[*:2])[*:1]; X36 = Cc1cc(-c2ccc(Cl)cc2C[C@@H](C(=O)[*:2])N(C)[*:1])ccc1N1CCN(C)CC1; X130 = CN([C@@H](Cc1cc(F)ccc1-c1ccn(S(C)(=O)=O)c1)C(=O)[*:2])[*:1]; X178 = CN([C@@H](Cc1cc(F)ccc1-c1cnn(C2CCOC2)c1)C(=O)[*:2])[*:1]; NMehhhLys(Me) = CN([C@@H](CCCCCCCN(C)[*:3])C(=O)[*:2])[*:1]; X22 = CN([C@@H](Cc1cc(Cl)ccc1-c1cnn(C)c1)C(=O)[*:2])[*:1]; Oxane2carbonyl(2R-CF3) = O=C([C@@]1(C(F)(F)F)CCCCO1)*; Cyclobutanecarbonyl(1-CF3) = O=C(C1(C(F)(F)F)CCC1)*; cBuCO(3,3-F2-1-CF3) = O=C(C1(C(F)(F)F)CC(F)(F)C1)*; Pro(trans-4-F) = O=C(O)[C@@H]1C[C@@H](F)CN1; X201 = O=C(C1(C(F)F)CC(F)(F)C1)*; Gly(cPr) = N[C@H](C(=O)O)C1CC1
Answer each item with its documented GI50.
Answers are plain numbers, in nM.

Record GI50 per entry; entries follow.
1. CC(C)C[C@@H]1NC(=O)[C@@H](N(C)C(=O)[C@@H](NC(=O)[C@@H]2C[C@@H](F)CN2C(=O)C2(C(F)(F)F)CCC2)C2CC2)CC=CCCCCN(C)C(=O)[C@H](Cc2cc(Cl)cnc2OC(C)C)N(C)C1=O [Example 137]
2. CC(C)C[C@@H]1NC(=O)[C@@H](N(C)C(=O)[C@@H](NC(=O)[C@@H]2C[C@@H](F)CN2C(=O)C2(C(F)(F)F)CC(F)(F)C2)C2CC2)CCCCCCCN(C)C(=O)[C@H](Cc2cc(F)ccc2-c2ccn(S(C)(=O)=O)c2)N(C)C1=O [Example 306] ({cBuCO(3,3-F2-1-CF3)}-[Pro(trans-4-F)][Gly(cPr)][NMehhhLys(Me)]L[X130]; lactam 3-C)
3. Cc1cc(-c2ccc(Cl)cc2C[C@H]2C(=O)N(C)CCCCCCC[C@H](N(C)C(=O)[C@@H](NC(=O)[C@@H]3C[C@@H](F)CN3C(=O)C3(C(F)(F)F)CC(F)(F)C3)C3CC3)C(=O)N[C@@H](CC(C)C)C(=O)N2C)ccc1N1CCN(C)CC1 [Example 374] ({cBuCO(3,3-F2-1-CF3)}-[Pro(trans-4-F)][Gly(cPr)][NMehhhLys(Me)]L[X36]; lactam 3-C)
4. CC(C)C[C@@H]1NC(=O)[C@@H](N(C)C(=O)[C@@H](NC(=O)[C@@H]2C[C@@H](F)CN2C(=O)C2(C(F)(F)F)CC(F)(F)C2)C2CC2)CC=CCCCCN(C)C(=O)[C@H](Cc2cc(Cl)cnc2OC2CC2)N(C)C1=O [Example 104]
5. CC(C)C[C@@H]1NC(=O)[C@@H](N(C)C(=O)[C@@H](NC(=O)[C@@H]2C[C@@H](F)CN2C(=O)[C@@]2(C(F)(F)F)CCCCO2)C2CC2)CCCCCCCN(C)C(=O)[C@H](Cc2cc(F)ccc2-c2cnn(S(=O)(=O)C3CC3)c2)N(C)C1=O [Example 282] ({Oxane2carbonyl(2R-CF3)}-[Pro(trans-4-F)][Gly(cPr)][NMehhhLys(Me)]L[X127]; lactam 3-C)

1. 760
2. 10
3. 10
4. 260
5. 10

Record GI50 per entry; entries follow.
1. CC(C)C[C@@H]1NC(=O)[C@@H](N(C)C(=O)[C@@H](NC(=O)[C@@H]2C[C@@H](F)CN2C(=O)C2(C(F)(F)F)CCC2)C2CC2)CC=CCCCCN(C)C(=O)[C@H](Cc2cc(Cl)ccc2-c2cnn(C3CC3)c2)N(C)C1=O [Example 81]
2. CC(C)C[C@@H]1NC(=O)[C@@H](N(C)C(=O)[C@@H](CC(=O)[C@@H]2C[C@@H](F)CN2C(=O)C2(C(F)(F)F)CC(F)(F)C2)C2CC2)CCCCCCN(C)C(=O)[C@H](Cc2cc(Cl)ccc2C2=CCOCC2)N(C)C1=O [Example 71]
3. CC(C)C[C@@H]1NC(=O)[C@@H](N(C)C(=O)[C@@H](NC(=O)[C@@H]2C[C@@H](F)CN2C(=O)C2(C(F)(F)F)CC(F)(F)C2)C2CC2)CCCCCCCN(C)C(=O)[C@H](Cc2cc(F)ccc2C2=C[C@@H]3COC[C@H](C2)N3C(=O)C(C)C)N(C)C1=O [Example 329] ({cBuCO(3,3-F2-1-CF3)}-[Pro(trans-4-F)][Gly(cPr)][NMehhhLys(Me)]L[X205]; lactam 3-C)
4. CC(C)C[C@@H]1NC(=O)[C@@H](N(C)C(=O)[C@@H](NC(=O)[C@@H]2C[C@@H](F)CN2C(=O)C2(C(F)(F)F)CCC2)C2CC2)CC=CCCCCNC(=O)[C@H](Cc2cc(Cl)cnc2OC(C)C)N(C)C1=O (single isomer, unassigned) [Example 136-P2]
5. CC(C)C[C@@H]1NC(=O)[C@@H](N(C)C(=O)[C@@H](NC(=O)[C@@H]2C[C@@H](F)CN2C(=O)C2(C(F)(F)F)CCC2)C2CC2)CC=CCCCCNC(=O)[C@H](Cc2cc(Cl)ccc2Oc2ncccn2)N(C)C1=O (single isomer, unassigned) [Example 156-P1]

1. 50
2. 90
3. 10
4. 640
5. 530

Record GI50 per entry; entries follow.
1. CC(C)C[C@@H]1NC(=O)[C@@H](N(C)C(=O)[C@@H](NC(=O)[C@@H]2C[C@@H](F)CN2C(=O)C2(C(F)F)CC(F)(F)C2)C2CC2)CCCCCCCN(C)C(=O)[C@H](Cc2cc(Cl)ccc2-c2ccc(N3CCOCC3)cc2)N(C)C1=O [Example 350] (X201-[Pro(trans-4-F)][Gly(cPr)][NMehhhLys(Me)]L[NMePhe(2-(4-MorPh),5-Cl)]; lactam 3-C)
2. CC(C)C[C@@H]1NC(=O)[C@@H](N(C)C(=O)[C@@H](NC(=O)[C@@H]2CCCN2C(=O)C2(C(F)(F)F)CCC2)C2CC2)CCCCCCCN(C)C(=O)[C@H](Cc2cc(Cl)ccc2-c2cnn(C)c2)N(C)C1=O [Example 76] ({Cyclobutanecarbonyl(1-CF3)}-P[Gly(cPr)][NMehhhLys(Me)]L[X22]; lactam 3-C)
3. CC(C)C[C@@H]1NC(=O)[C@@H](N(C)C(=O)[C@@H](NC(=O)[C@@H]2C[C@@H](F)CN2C(=O)C2(C(F)(F)F)CC(F)(F)C2)C2CC2)CCCCCCCN(C)C(=O)[C@H](Cc2cc(F)ccc2-c2cnn(C3CCOC3)c2)N(C)C1=O (stereo partly drawn) [Example 94] ({cBuCO(3,3-F2-1-CF3)}-[Pro(trans-4-F)][Gly(cPr)][NMehhhLys(Me)]L[X178]; lactam 3-C)

[10, 120, 10]
